Each entry below carries its recorded z-score.
# test name: FRG1 promoter luciferase signal modulators, primary screen, FRG1 inhibition for FSHD, cell-based, C2C12 myotubes, firefly/Renilla luciferase, luminescence (AID 1084)
# recorded conditions: higher = more signal, called active from +8 up or from −8 down
Just the number.

These solved cases illustrate the format of a correct answer.
molecule	reported result
O=C1C[C@@](C(=O)NC2CC2)(c2ccc([N+](=O)[O-])cc2)[C@@H](c2ccc(CO)cc2)N1CC12CC3CC(CC(C3)C1)C2	-0.962
COC(=O)C(CC#Cc1ccc2c(c1)[C@]1(C(=O)N2)[C@H](C(=O)NC[C@H](O)c2ccccc2)[C@H]2C(=O)O[C@H](c3ccccc3)[C@H](c3ccccc3)N2[C@@H]1c1ccc(OCCO)cc1)C(=O)OC	1.9

**Query** Fill in reported z-score for this entry: "COC(=O)C[C@@H]1C[C@H](C)[C@]2(O1)C(=O)N(Cc1ccccc1)c1ccc(NC(C)=O)cc12"
**Result** 0.74

**Query** For the molecule CC(=O)C1=CCC(c2ccccc2)N(S(=O)(=O)c2ccc(C)cc2)C1 (stereo not given) , give its measured z-score value.
**Result** -2.72
